Where do the numbers come from? From the kinase profiling compilation of Christmann-Franck et al. (2016).

Target: BRSK2 (human) (UniProt Q8IWQ3)
Sequence (Q8IWQ3 whole entry, looked up): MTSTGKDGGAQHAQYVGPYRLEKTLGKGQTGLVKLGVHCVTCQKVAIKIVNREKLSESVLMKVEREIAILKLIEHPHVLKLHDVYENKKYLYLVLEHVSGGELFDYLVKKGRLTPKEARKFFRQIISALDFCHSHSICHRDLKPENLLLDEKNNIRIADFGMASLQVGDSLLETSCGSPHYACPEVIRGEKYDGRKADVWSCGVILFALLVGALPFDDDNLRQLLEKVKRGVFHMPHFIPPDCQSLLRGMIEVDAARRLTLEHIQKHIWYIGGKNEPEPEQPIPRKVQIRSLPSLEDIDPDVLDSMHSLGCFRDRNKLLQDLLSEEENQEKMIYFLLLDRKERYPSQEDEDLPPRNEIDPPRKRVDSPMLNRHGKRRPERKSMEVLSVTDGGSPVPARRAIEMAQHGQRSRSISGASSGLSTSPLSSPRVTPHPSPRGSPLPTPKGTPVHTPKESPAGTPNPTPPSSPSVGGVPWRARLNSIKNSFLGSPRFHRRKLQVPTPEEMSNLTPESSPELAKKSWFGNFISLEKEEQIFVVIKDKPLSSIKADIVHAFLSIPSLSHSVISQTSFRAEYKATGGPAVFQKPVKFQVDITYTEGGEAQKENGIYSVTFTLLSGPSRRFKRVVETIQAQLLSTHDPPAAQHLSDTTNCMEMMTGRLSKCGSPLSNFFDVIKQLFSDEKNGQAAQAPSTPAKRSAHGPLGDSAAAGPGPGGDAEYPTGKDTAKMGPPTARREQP
Experiment: radiometric filter-binding kinase assay
Settings: compound 10.0 µM
observed.property: residual activity (%)

[P] N#Cc1c(C2CCNCC2)cc(-c2c(O)cccc2OCC2CC2)nc1N
[Q] c1ccc2c(-c3cnn4cc(-c5ccc(N6CCNCC6)cc5)cnc34)ccnc2c1
input: Between P and Q , which one shows the smaller residual activity number? Your choice should be expressed through its label.
output: Q
(Q: 20%, P: 46%)

* * *

Biological target: TBK1 (human)
Test: radiometric filter-binding kinase assay
Conditions: compound 0.1 µM
observed.property: residual activity (%)

smiles_repr=O=C(O)c1ccc(-c2c[nH]c3ncc(-c4ccccc4)cc23)cc1C1CCCC1 observed_property="residual activity" measured_result=86

[A] CN(C)C/C=C/C(=O)Nc1cccc(C(=O)Nc2ccc(Nc3nccc(-c4cccnc4)n3)cc2)c1
[B] COc1ccc(-n2ncc3cnc(Nc4cc(OC)c(OC)c(OCCCN5CCN(C)CC5)c4)nc32)cc1
[C] C/C(=C1/C(=O)Nc2ccc(NC(N)=O)cc21)c1ccc[nH]1
[D] CCCCCc1ccc(/C=C/[C@H](O)[C@@H](CO)NC)cc1
input: Rank descending by residual activity. Sort and list the labels as requested.
output: D, A, C, B

* * *

Target: AURKB (human) (UniProt Q96GD4)
Sequence (Q96GD4 whole entry, looked up): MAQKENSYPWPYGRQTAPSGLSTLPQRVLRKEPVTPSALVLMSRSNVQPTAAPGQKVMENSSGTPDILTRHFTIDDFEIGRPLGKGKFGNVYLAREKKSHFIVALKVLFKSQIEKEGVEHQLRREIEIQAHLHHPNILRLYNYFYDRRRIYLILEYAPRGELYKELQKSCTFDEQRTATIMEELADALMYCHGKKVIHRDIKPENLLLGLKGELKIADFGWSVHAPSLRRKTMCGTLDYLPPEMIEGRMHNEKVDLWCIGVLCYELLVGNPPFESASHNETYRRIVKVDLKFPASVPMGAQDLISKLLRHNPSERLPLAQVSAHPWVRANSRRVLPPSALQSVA
Test: radiometric filter-binding kinase assay
Conditions: compound 1.0 µM
observed.property: residual activity (%)

// worked examples, residual activity included
compound=O=C(Nc1nc2cc(C(F)(F)F)cc(NC3CC3)n2n1)c1cccnc1 observed_property="residual activity" unit_abbreviation=% measured_result=89
compound="C=C1C(=O)OC2C1CC/C(C)=C/CCC1(C)OC21 (stereo unspecified)" observed_property="residual activity" unit_abbreviation=% measured_result=106
compound=NC(=O)c1cc2c(-c3cccc(-c4ccccc4)c3)cnc(N)c2s1 observed_property="residual activity" unit_abbreviation=% measured_result=96
compound=NC(=O)c1cc(-c2ccnc(NC3CCCCC3)c2)nc(N2CCNCC2)c1 observed_property="residual activity" unit_abbreviation=% measured_result=117
compound=NC(=O)c1c(NC(=O)C2CC2)sc2c1CCCC2 observed_property="residual activity" unit_abbreviation=% measured_result=79

[I] Cc1ccc(-c2ccc3c(ccc4sc5c(c43)NC[C@@H](C)NC5=O)n2)cn1
[II] C=CC(=O)N1CCC[C@@H](n2nc(-c3ccc(Oc4ccccc4)cc3)c3c(N)ncnc32)C1
[III] CNC(=O)C1[C@H]2O[C@@](C)([C@@H]1N)n1c3ccccc3c3c4c(c5c6ccccc6n2c5c31)C(=O)NC4 (stereo partly specified)
[IV] Oc1ccc2ccccc2c1SSc1c(O)ccc2ccccc12
[V] COc1ccc(-n2ncc3cnc(Nc4cc(OC)c(OC)c(OCCCN5CCN(C)CC5)c4)nc32)cc1
input: hey, can you rank those compounds up there by residual activity? biggest number first please Order the labels as requested and list them.
output: I, II, III, V, IV

[a] NCC(=O)Nc1ccc(-n2nc(C(F)(F)F)cc2-c2ccc3c(ccc4ccccc43)c2)cc1
[b] O=C(O)c1ccc(-c2c[nH]c3ncc(-c4ccccc4)cc23)cc1C1CCCC1
input: // task: argmin of residual activity over [ a , b ] Let me know the label of the one you choose.
output: b
(b: 32%, a: 93%)

[1] N#Cc1c(C2CCNCC2)cc(-c2c(O)cccc2OCC2CC2)nc1N
[2] COc1cc(O)c2c(c1)[C@H]1OC1C[C@H](O)[C@H](O)C(=O)/C=C\C[C@H](C)OC2=O (stereo partly specified)
input: Which one would you say has the larger residual activity value: 1 , or 2 ? State your choice using its label.
output: 2

[1] CN(C)C/C=C/C(=O)Nc1cccc(C(=O)Nc2ccc(Nc3nccc(-c4cccnc4)n3)cc2)c1
[2] Cc1cc(SCc2sc(-c3ccc(C(F)(F)F)cc3)nc2C)ccc1OCC(=O)O
input: Please let me know which one, 1 or 2 , has a lower measured residual activity value. Return value: the label identifying the chosen record.
output: 1
